ΔTm values by entry
Biological target: Fibroblast growth factor receptor 3 (Homo sapiens)
Conditions: Compound concentration 20.0 uM, Protein concentration 2.0 uM, Result type QC Liability
Description: Thermal Shift Assay. Domain: start/stop: P449-E759
metric: ΔTm (°C)

In [3]: df
Out[3]:
                             compound_string  metric  unit_name  recorded_result
 0  C[C@]12CC[C@@H]3c4ccc(O)cc4CC[C@H]3[C@@H]1C[C@H]1OC(=O)C[C@]12O     ΔTm         °C             0.36
 1  COc1ccc(S(=O)(=O)N2CCOCC2)cc1Nc1ccc2c(n1)N(C1CCN(C)CC1)[C@H](C)C(=O)N2C     ΔTm         °C             0.38
 2  CCC(=O)N[C@H]1CC[C@@H](C(=O)N(C)c2ccc(-c3nc4ccccc4o3)cc2)C1     ΔTm         °C              0.8
 3            CSc1nc2c(c(=O)n(C)c(=O)n2C)n1C     ΔTm         °C             0.45
 4  CC(=O)N1CCN([C@H]2CCC[C@@H](NC(=O)c3cc4c(F)ccc(C)c4[nH]3)C2)CC1     ΔTm         °C              0.6
 5  COCCOCn1c(S(C)(=O)=O)nc2c1c(=O)n(C)c(=O)n2C     ΔTm         °C             0.45
 6  CCN(CC)C/C=C/C(=O)Nc1cc2c(Nc3ccc(F)c(Cl)c3)ncnc2cc1OCC1CC1     ΔTm         °C             1.12
 7  C=CC(=O)Nc1ccc(C(=O)Nc2[nH]nc3c2CN(C(=O)N[C@H](CN(C)C)c2ccccc2)C3(C)C)cc1     ΔTm         °C             7.32
 8  Cn1ccc(Cn2cnc(-c3ccc(F)cc3)c2-c2ccnc3[nH]ccc23)n1     ΔTm         °C             0.54
 9  Fc1ccc(-c2c3cccc(C(F)(F)F)c3nn2Cc2ccc(F)cc2Cl)cc1     ΔTm         °C             0.67
10  O=C(NC[C@@H]1[C@H]2CN(C(=O)OCc3cc(C(F)(F)F)cc(C(F)(F)F)c3)C[C@@H]12)c1ccc2[nH]nnc2c1     ΔTm         °C             1.51
11  Nc1nc(-c2nn(Cc3ccccc3F)c3ncccc23)ncc1C1CC1     ΔTm         °C             1.14
12  COC1(C#Cc2ccc(Cl)c(-c3ncc4c(n3)-c3sc(NC(C)=O)nc3CC4)c2)CCN(C)CC1     ΔTm         °C             0.77
13  NC(=O)OC[C@H](NC(=O)Cn1nc(-c2ccc(Cl)cc2)n(C[C@H](O)C(F)(F)F)c1=O)c1cccc(C(F)(F)F)c1     ΔTm         °C             1.19

----------
# Lookup of reported ΔTm keyed by entry
Molecular target: Peregrin (Homo sapiens) (UniProt P55201)
Settings: Compound concentration 20.0 uM, Protein concentration 2.0 uM, Result type QC Liability
metric: ΔTm (°C)

>>> print(df.to_string())
                                   compound  recorded_result
0  CN(C)CCC[C@@]1(c2ccc(F)cc2)OCc2cc(C#N)ccc21            -3.08
1  CN[C@@H](C)C(=O)N[C@H]1CN(C(=O)CC(C)C)CC[C@H]2CC[C@@H](C(=O)NC(c3ccccc3)c3ccccc3)N2C1=O            -1.53
2  CN(C1CCc2c(c3ccccc3n2CC(=O)O)C1)S(=O)(=O)c1ccc(F)cc1 (stereo not drawn)            -2.54

----------
Molecular target: Peregrin (Homo sapiens) (UniProt P55201)
Sequence (whole entry): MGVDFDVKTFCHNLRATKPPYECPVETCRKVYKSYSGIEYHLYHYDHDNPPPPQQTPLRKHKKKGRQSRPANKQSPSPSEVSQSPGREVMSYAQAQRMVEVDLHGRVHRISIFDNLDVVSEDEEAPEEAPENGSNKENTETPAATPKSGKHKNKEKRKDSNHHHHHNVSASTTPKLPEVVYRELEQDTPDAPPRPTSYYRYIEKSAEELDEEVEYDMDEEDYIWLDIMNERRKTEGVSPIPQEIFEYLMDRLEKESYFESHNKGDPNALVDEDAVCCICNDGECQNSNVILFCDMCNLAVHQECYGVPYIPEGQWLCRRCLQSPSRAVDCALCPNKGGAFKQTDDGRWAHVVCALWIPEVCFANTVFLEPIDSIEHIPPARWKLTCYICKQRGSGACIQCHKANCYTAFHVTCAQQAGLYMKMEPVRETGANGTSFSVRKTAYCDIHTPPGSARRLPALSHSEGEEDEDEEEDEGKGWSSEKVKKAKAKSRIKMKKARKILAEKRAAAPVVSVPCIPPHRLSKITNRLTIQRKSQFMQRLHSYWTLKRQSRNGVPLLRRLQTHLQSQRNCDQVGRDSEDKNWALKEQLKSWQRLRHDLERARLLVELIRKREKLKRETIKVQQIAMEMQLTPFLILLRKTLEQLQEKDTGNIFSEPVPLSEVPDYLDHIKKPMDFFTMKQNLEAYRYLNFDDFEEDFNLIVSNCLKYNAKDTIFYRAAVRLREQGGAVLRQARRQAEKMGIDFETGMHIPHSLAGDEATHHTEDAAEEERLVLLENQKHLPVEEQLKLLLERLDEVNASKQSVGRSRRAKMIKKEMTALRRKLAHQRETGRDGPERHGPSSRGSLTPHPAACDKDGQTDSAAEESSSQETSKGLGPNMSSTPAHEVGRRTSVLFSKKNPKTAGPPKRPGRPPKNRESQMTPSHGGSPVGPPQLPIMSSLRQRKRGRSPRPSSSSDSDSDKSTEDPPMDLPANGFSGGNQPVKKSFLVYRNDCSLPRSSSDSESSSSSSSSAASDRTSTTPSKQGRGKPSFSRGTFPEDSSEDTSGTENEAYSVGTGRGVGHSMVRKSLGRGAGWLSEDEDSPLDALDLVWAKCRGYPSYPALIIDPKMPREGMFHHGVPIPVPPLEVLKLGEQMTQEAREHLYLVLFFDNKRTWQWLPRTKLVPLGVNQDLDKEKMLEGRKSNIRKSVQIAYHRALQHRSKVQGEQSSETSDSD
Details: Compound concentration 20.0 uM, Protein concentration 2.0 uM, Result type QC Liability
Listed below: ΔTm values for each entry.
metric: ΔTm (°C)

In [3]: df
Out[3]:
                            compound_string  recorded_result
0  COc1nc2ccc([C@@](O)(c3ccc(Cl)cc3)c3cncn3C)cc2c(Cl)c1Cc1ccc(-n2cccn2)cc1            -1.33
1  Cn1ncc(-c2nc(N[C@H]3CC[C@H](N)CC3)ncc2Cl)c1CC1CC1            -1.56
2  CCN(C)C(=O)c1ccc2c(c1)NC(=O)/C2=C(\NC1CCN(C)CC1)c1ccccc1            -1.76
3  CCOCCn1cc(C(=O)Nc2ccc(-n3nc(-c4cccnc4)cc3C(F)(F)F)cn2)ccc1=O            -3.33

----------
Target: Fibroblast growth factor receptor 3 (Homo sapiens) (UniProt P22607)
Sequence (P22607 23-806 limits assumed): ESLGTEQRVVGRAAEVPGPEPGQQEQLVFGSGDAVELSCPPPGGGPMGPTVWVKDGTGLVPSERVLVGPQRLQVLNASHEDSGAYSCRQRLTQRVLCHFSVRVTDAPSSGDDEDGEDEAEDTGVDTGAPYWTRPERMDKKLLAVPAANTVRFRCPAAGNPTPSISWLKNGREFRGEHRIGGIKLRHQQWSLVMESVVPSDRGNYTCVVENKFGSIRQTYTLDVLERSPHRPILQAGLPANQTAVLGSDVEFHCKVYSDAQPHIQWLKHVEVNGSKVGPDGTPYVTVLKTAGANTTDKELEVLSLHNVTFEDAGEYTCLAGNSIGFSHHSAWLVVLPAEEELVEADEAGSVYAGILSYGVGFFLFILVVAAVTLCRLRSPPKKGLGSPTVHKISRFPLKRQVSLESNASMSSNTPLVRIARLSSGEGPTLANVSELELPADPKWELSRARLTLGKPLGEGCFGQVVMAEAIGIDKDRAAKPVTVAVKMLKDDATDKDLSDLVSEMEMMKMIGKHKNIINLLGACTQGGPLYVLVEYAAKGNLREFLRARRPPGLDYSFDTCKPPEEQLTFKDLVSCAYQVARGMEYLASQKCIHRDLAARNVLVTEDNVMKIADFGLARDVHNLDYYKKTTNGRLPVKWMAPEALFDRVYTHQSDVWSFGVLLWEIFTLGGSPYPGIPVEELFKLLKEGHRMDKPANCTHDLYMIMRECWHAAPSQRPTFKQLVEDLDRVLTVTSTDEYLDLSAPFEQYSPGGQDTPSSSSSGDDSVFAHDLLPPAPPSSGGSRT
Details: Compound concentration 20.0 uM, Protein concentration 2.0 uM, Result type QC Liability
metric: ΔTm (°C)

molecule	test-system	unit-name	recorded-result
CC(C)S(=O)(=O)c1ccccc1Nc1nc(N[C@@H]2CCCN(CCCCCCCNC(=O)COc3cccc4c3C(=O)N(C3CCC(=O)NC3=O)C4=O)C2)ncc1Cl (stereo partly specified)	Fibroblast growth factor receptor 3 (Homo sapiens) (UniProt P22607)	°C	7.81
O=c1[nH]c(CS[C@H]2CC[C@H](O)CC2)nc2cc(OCC3CC3)cc(F)c12	Fibroblast growth factor receptor 3 (Homo sapiens) (UniProt P22607)	°C	0.65
COc1ccc(C(=O)N[C@H](C)c2cccc(C(=O)Nc3nc4c(s3)CN(C)CC4)c2)cc1C	Fibroblast growth factor receptor 3 (Homo sapiens) (UniProt P22607)	°C	0.97
COc1ccc(CC[C@@H](OC(=O)[C@@H]2CCCCN2C(=O)[C@H](c2cc(OC)c(OC)c(OC)c2)C2CCCCC2)c2cccc(OCCN3CCOCC3)c2)cc1OC	Fibroblast growth factor receptor 3 (Homo sapiens) (UniProt P22607)	°C	-3.93
Nc1ncnc2c1c(COc1cccc(Cl)c1)nn2C1CCOCC1	Fibroblast growth factor receptor 3 (Homo sapiens) (UniProt P22607)	°C	1.63
Nc1ncnc2c1ccn2[C@@H]1O[C@H]([C@@H](O)c2ccccc2)[C@@H](O)[C@H]1O	Fibroblast growth factor receptor 3 (Homo sapiens) (UniProt P22607)	°C	0.72

----------
Target: Fibroblast growth factor receptor 3 (Homo sapiens) (UniProt P22607)
Conditions: Compound concentration 20.0 uM, Protein concentration 2.0 uM, Result type QC Liability
metric: ΔTm (°C)

compound-string	recorded-result
O=C1CCCc2[nH]c(-c3ccnc(NCC4CC4)c3)c(Nc3ccccc3)c21	0.77
CN[C@@H](C)C(=O)N[C@H](C(=O)N1CCC[C@H]1C(=O)N[C@H]1c2ccccc2C[C@H]1OCC#CC#CCO[C@@H]1Cc2ccccc2[C@@H]1NC(=O)[C@@H]1CCCN1C(=O)[C@@H](NC(=O)[C@H](C)NC)C1CCCCC1)C1CCCCC1	1.42
N[C@@H]1CCCN(c2c(/C=C3\SC(=O)NC3=O)cccc2-c2ccccc2)C1	0.95
Cc1nc2ccc(Oc3ccc(F)cc3)cc2c(=O)n1C[C@H]1CCCN(C(C)C)C1	0.96
